B1: library; numbered along this chain (parent)
chain: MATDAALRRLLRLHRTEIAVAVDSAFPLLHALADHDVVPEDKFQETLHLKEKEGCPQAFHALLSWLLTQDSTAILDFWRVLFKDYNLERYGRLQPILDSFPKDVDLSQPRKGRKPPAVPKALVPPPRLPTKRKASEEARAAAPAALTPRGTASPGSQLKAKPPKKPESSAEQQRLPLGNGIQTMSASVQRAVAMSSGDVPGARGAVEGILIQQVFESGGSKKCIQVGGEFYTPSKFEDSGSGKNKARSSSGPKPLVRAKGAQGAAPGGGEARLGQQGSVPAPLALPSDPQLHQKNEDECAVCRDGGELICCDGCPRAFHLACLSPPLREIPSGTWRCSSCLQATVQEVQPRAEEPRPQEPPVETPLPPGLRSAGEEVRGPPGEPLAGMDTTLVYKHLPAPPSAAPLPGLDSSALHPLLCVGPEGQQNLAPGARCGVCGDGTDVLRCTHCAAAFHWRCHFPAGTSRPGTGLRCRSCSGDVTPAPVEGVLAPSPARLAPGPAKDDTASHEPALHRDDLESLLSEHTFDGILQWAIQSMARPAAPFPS

variants of: B1; assay: AIRE transcriptional activation functional score (insulin promoter-GFP; nonsense median 0, synonymous median 1) (normalised score); higher = higher AIRE activity (more reporter activation); conditions: with insulin promoter-GFP reporter in HEK293
Kind request: treat 0.8 as inclusive, so AIRE transcriptional activation functional score at 0.8 or higher is 1 (yes), anything lower is 0 (no).

Would you please look over these solved cases?
[
  {
    "variant-label": "L175S",
    "class": "0 (no)"
  },
  {
    "variant-label": "S169P",
    "class": "1 (yes)"
  },
  {
    "variant-label": "L341P",
    "class": "1 (yes)"
  },
  {
    "variant-label": "A404P",
    "class": "1 (yes)"
  },
  {
    "variant-label": "N86A",
    "class": "0 (no)"
  }
]

Decide: is the reported value of AIRE transcriptional activation functional score for R538G equal to or greater than 0.8?
0 (no)

Threshold query (AIRE transcriptional activation functional score >= 0.8) on H14W
0 (no)
